The origin of these recorded values is PubChem BioAssay (NCATS).

# Tested on: CP268
# procedure_text: qHTS profiling for inhibitors of Plasmodium falciparum proliferation (AID 504749); note: nearly all actives have a fitted effect of over 60% in size
# experimental_context: P. falciparum in erythrocytes, SYBR Green DNA, 72 h; series mostly up to 28.7 µM
Inconclusive results are not listed. The source made the active and inactive calls. Calls come from the whole dose curve; as a rule, active = well fitted inhibition curve with a large enough effect; inconclusive = small, poorly fitted or top-dose-only effect; inactive = flat fitted curve, though single readings scatter.
Outcome codes: active, inactive

- structure_smiles: "C[C@]12CCC(=O)C=C1CC[C@H]1[C@@H]3CC[C@](O)(C(=O)CO)[C@@]3(C)C[C@H](O)[C@@]12F"
  assigned_label: "inactive"
- structure_smiles: "C=CCc1ccc(O)c(OC)c1"
  assigned_label: "inactive"
- structure_smiles: "C[C@H]1C[C@H]2[C@@H]3CCC4=CC(=O)C=C[C@]4(C)[C@@]3(Cl)[C@@H](O)C[C@]2(C)[C@@]1(O)C(=O)CO"
  assigned_label: "inactive"
- structure_smiles: "CN1CCC[C@@H]1c1cccnc1"
  assigned_label: "inactive"
- structure_smiles: "CC(C)COC(=O)c1ccc(N)cc1"
  assigned_label: "inactive"
- structure_smiles: "Oc1ccc(O)cc1"
  assigned_label: "inactive"
- structure_smiles: "O=C(Nc1ccc(Oc2ccc(Cl)cc2)c(Cl)c1)c1cc(I)cc(I)c1O"
  assigned_label: "inactive"
- structure_smiles: "CCN(CC)C(=O)/C(C#N)=C/c1cc(O)c(O)c([N+](=O)[O-])c1"
  assigned_label: "inactive"
- structure_smiles: "O=C(Nc1ccc(Cl)c(Cl)c1)C1CC1"
  assigned_label: "inactive"
- structure_smiles: "COc1ccc(CCN2CCC(Nc3nc4ccccc4n3Cc3ccc(F)cc3)CC2)cc1"
  assigned_label: "active"
- structure_smiles: "COc1c2occc2c(OC)c2c(=O)cc(C)oc12"
  assigned_label: "inactive"
- structure_smiles: "Cc1cccc(C)c1NC(=O)CN1CCN(CCCC(c2ccc(F)cc2)c2ccc(F)cc2)CC1"
  assigned_label: "inactive"
- structure_smiles: "CCC(=O)c1c(O)cc(O)cc1O"
  assigned_label: "inactive"
- structure_smiles: "CN=C(NC#N)NCCSCc1csc(N=C(N)N)n1"
  assigned_label: "inactive"
- structure_smiles: "C1CCc2nnnn2CC1"
  assigned_label: "inactive"
- structure_smiles: "Cc1ncc(CSSCc2cnc(C)c(O)c2CO)c(CO)c1O"
  assigned_label: "inactive"
- structure_smiles: "O=C1c2ccccc2C(=O)C1c1ccccc1"
  assigned_label: "inactive"
- structure_smiles: "CCN(CC)CCNC(=O)COc1ccc(Cl)cc1"
  assigned_label: "inactive"
- structure_smiles: "C[C@H](O)C(=O)Nc1c(I)c(C(=O)NC(CO)CO)c(I)c(C(=O)NC(CO)CO)c1I"
  assigned_label: "inactive"
- structure_smiles: "CCCCOc1ccc(OCCCN2CCOCC2)cc1"
  assigned_label: "inactive"
- structure_smiles: "O=C(OCCOCCO)c1ccccc1Nc1cccc(C(F)(F)F)c1"
  assigned_label: "inactive"
- structure_smiles: "CC(C)=CCC1C(=O)N(c2ccccc2)N(c2ccccc2)C1=O"
  assigned_label: "inactive"
- structure_smiles: "CCCCC1=NC2(CCCC2)C(=O)N1Cc1ccc(-c2ccccc2-c2nn[nH]n2)cc1"
  assigned_label: "inactive"
- structure_smiles: "CCN1CCC[C@H]1CNC(=O)c1c(OC)ccc(Br)c1OC"
  assigned_label: "inactive"
